This collection of values is drawn from patent US11390625B2.

Test system: Ba/F3 (EGFR Δ19del/T790M/C797S) cells
Assay: Anti-proliferation experiment on cells (2), Ba/F3 (EGFR Δ19del/T790M/C797S)
Format: cell-based
Conditions: Ba/F3 EGFR, 72 h; Ba/F3 cells, 3 days; read-out: anti-proliferation effect on cells Ba/F3(Δ19del/T790M/C797S) IC50
pIC50: −log10 of the molar value.
MEASUREMENT_KIND: pIC50

>>> observed_result("COc1cc(N2CCC3(CC2)CN(C(C)C)C3)c(C)cc1Nc1ncc(Br)c(Nc2ccc3ccccc3c2P(C)(C)=O)n1")
6.79

a = COc1cc(N2CCC3(CC2)CN(C)C3)c(C)cc1Nc1nc(Nc2ccc3ccccc3c2P(C)(C)=O)c2cc[nH]c2n1
b = COc1cc(N2CCN(C)CC2)c(C)cc1Nc1ncc(Br)c(Nc2ccc3nccnc3c2P(C)(C)=O)n1
Prompt line: Hi, I'm comparing a with b and wondering which one has the bigger number for pIC50. Any idea? Write down the label attached to your selection.
Response line: b
(b: 7.06, a: 6.60)

---

System: Ba/F3 (EGFR Δ19del/T790M/C797S) cells
Experiment: Anti-proliferation experiment on cells (2), Ba/F3 (EGFR Δ19del/T790M/C797S)
Type: cell-based
Settings: Ba/F3 EGFR, 72 h; Ba/F3 cells, 3 days; read-out: anti-proliferation effect on cells Ba/F3(Δ19del/T790M/C797S) IC50
pIC50: −log10 of the molar value.
MEASUREMENT_KIND: pIC50

Examples from the recorded data:
>>> observed_result("COc1cc(N2CCC(N3CCN(C)CC3)CC2)c(Cl)cc1Nc1ncc(Cl)c(Nc2ccc3ccccc3c2P(C)(C)=O)n1")
6.74
>>> observed_result("COc1cc(N2CCC3(CC2)CN(CCO)C3)c(C)cc1Nc1ncc(Cl)c(Nc2ccc3ccccc3c2P(C)(C)=O)n1")
6.54
>>> observed_result("COc1cc(N2CCC3(CCN(C)CC3)CC2)c(C)cc1Nc1ncc(Br)c(Nc2ccc3nccnc3c2P(C)(C)=O)n1")
7.57
>>> observed_result("COc1cc(N2CCC3(CC2)CN(C)C3)c(C)cc1Nc1ncc(C#N)c(Nc2ccc3ccccc3c2P(C)(C)=O)n1")
6.12
>>> observed_result("COc1cc(N2CCC3(CCN(C)CC3)CC2)c(Cl)cc1Nc1ncc(Cl)c(Nc2ccc3cccnc3c2P(C)(C)=O)n1")
5.22

A = COc1ccc(OCCNS(C)(=O)=O)cc1Nc1ncc(Cl)c(Nc2ccc3ccccc3c2P(C)(C)=O)n1
B = COc1cc(N2CCC(N3CCN(C)CC3)CC2)ccc1Nc1ncc(Cl)c(Nc2ccc3scnc3c2P(C)(C)=O)n1
Prompt line: Hi, I'm comparing A with B and wondering which one has the bigger number for pIC50. Any idea? Write down the label attached to your selection.
Response line: B
(B: 6.35, A: 5.80)

---

System: Ba/F3 (EGFR Δ19del/T790M/C797S) cells
Experiment: Anti-proliferation experiment on cells (2), Ba/F3 (EGFR Δ19del/T790M/C797S)
Format: cell-based
Settings: Ba/F3 EGFR, 72 h; Ba/F3 cells, 3 days; read-out: anti-proliferation effect on cells Ba/F3(Δ19del/T790M/C797S) IC50
pIC50: −log10 of the molar value.
MEASUREMENT_KIND: pIC50

>>> observed_result("COc1cc(N2CCC(N3CCN(C)CC3)CC2)ccc1Nc1ncc(Cl)c(Nc2ccc3nccnc3c2P(C)(C)=O)n1 [Example 59]")
7.27
>>> observed_result("COc1cc(N2CCC(N3CCN(C)CC3)CC2)ccc1Nc1ncc(Cl)c(Nc2ccc3cccnc3c2P(C)(C)=O)n1 [Compound 43]")
6.30
>>> observed_result("COc1cc(N2CCC(N3CCN(C)CC3)CC2)c(C)cc1Nc1ncc(Br)c(Nc2ccc3nccnc3c2P(C)(C)=O)n1 [Compound 34]")
7.66
>>> observed_result("COc1cc(N2CCC3(CC2)CN(C)C3)c(C)cc1Nc1ncc(Cl)c(Nc2ccc3cnn(C)c3c2P(C)(C)=O)n1 [Compound 13]")
5.44

a = COc1cc(N2CCC(N3CCN(C)CC3)CC2)c(C)cc1Nc1ncc(Cl)c(Nc2ccc3nccnc3c2P(C)(C)=O)n1 [Example 61]
b = COc1cc(N2CCC3(CC2)CN(C)C3)c(C)cc1Nc1ncc(Cl)c(Nc2ccc3sccc3c2P(C)(C)=O)n1 [Compound 2]
Prompt line: Hi, I'm comparing a with b and wondering which one has the bigger number for pIC50. Any idea? Write down the label attached to your selection.
Response line: a

1 = COc1cc(N2CCC3(CC2)CN(C)C3)c(C)cc1Nc1ncc(Cl)c(Nc2ccc3c(c2P(C)(C)=O)CCC3)n1 [Compound 16]
2 = COc1cc(N2CCC3(CC2)CN(C)C3)c(C)cc1Nc1ncc(C2CC2)c(Nc2ccc3ccccc3c2P(C)(C)=O)n1 [Compound 25]
3 = COc1cc(N2CCC3(CC2)CN(C)C3)c(C)cc1Nc1ncc(Br)c(Nc2ccc3nccnc3c2P(C)(C)=O)n1 [Compound 36]
Prompt line: Please list the entries, largest pIC50 first. Please, when replying, give the labels in the order that was requested.
Response line: 3, 1, 2
(3: 7.35, 1: 6.68, 2: 6.19)

A = COc1cc(N2CCC3(CC2)CN(C)C3)ccc1Nc1ncc(Cl)c(Nc2ccc3ccccc3c2P(C)(C)=O)n1 [Compound 5]
B = COc1cc(N2CCC3(CC2)CN(CCN(C)C)C3)c(C)cc1Nc1ncc(Cl)c(Nc2ccc3nccnc3c2P(C)(C)=O)n1 [Compound 39]
C = COc1cc(N2CCC3(CCN(C)CC3)CC2)c(Cl)cc1Nc1ncc(Cl)c(Nc2ccc3ccccc3c2P(C)(C)=O)n1 [Compound 4]
Prompt line: Arrange these 3 molecules in increasing order of pIC50. Please, when replying, give the labels in the order that was requested.
Response line: C, A, B
(C: 6.25, A: 6.50, B: 6.73)
